Biological target: T1, human TREM2 (triggering receptor expressed on myeloid cells 2) (human) (UniProt Q9NZC2)
T1 sequence (looked up): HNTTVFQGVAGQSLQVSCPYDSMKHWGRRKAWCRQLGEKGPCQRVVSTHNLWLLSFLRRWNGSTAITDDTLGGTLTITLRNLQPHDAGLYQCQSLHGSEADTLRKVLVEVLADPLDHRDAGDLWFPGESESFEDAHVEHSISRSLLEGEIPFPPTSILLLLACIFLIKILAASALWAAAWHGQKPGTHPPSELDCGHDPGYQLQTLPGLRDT
Test: 2nd screen, 2 nM Ab
Note to self: Binding Signal (fold over 6E7 parental antibody) under 4 fold means label 1, ties and anything higher get label 0.

Input: Find out if reported Binding Signal (fold over 6E7 parental antibody) for 6E7 antibody affinity modulation variant V74 (antibody, V domains shown) VH: EVQLVQSGAEVKKPGESLKISCKGSGYSFASYWIAWVRQMPGKGLEWMGIIYPGDSDVRYSPSFQGQVTISADKSISTAYLQWSSLKASDTAMYFCARGRTFYYDSSDYFDYWGQGTLVTVSS VL: DIQMTQSPSSVSASVGDRVTITCRASQGISSWLAWYQQKPGKAPKLLIYAASSLQLGVPSRFSGSGSGTDFTLTISSLQPEDFATYFCQQADSFPRTFGQGTKLEIK is less than 4 fold
Output: label 1

Input: Find out if reported Binding Signal (fold over 6E7 parental antibody) for 6E7 antibody affinity modulation variant V37 (antibody, V domains shown) VH: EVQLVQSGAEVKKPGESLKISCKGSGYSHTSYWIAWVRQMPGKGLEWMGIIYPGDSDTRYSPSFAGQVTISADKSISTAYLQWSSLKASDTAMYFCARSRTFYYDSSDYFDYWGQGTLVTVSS VL: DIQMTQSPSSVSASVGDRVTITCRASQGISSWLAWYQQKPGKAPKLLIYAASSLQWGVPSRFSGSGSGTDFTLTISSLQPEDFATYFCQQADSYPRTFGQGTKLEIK is less than 4 fold
Output: label 1

Input: Find out if reported Binding Signal (fold over 6E7 parental antibody) for 6E7 antibody affinity modulation variant V38 (antibody, V domains shown) VH: EVQLVQSGAEVKKPGESLKISCKGSGYSFGSYWIAWVRQMPGKGLEWMGIIYPGDSDVRYSPSFQGQVTISADKSISTAYLQWSSLKASDTAMYFCARQRTFYYDSSDYFDYWGQGTLVTVSS VL: DIQMTQSPSSVSASVGDRVTITCRASQGISSWLAWYQQKPGKAPKLLIYAASSRQNGVPSRFSGSGSGTDFTLTISSLQPEDFATYFCQQADSHPRTFGQGTKLEIK is less than 4 fold
Output: label 1

Input: Find out if reported Binding Signal (fold over 6E7 parental antibody) for 6E7 antibody affinity modulation variant V1 (antibody, V domains shown) VH: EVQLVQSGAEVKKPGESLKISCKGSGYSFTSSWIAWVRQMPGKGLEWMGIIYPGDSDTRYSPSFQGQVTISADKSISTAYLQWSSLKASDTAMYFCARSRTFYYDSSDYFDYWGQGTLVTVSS VL: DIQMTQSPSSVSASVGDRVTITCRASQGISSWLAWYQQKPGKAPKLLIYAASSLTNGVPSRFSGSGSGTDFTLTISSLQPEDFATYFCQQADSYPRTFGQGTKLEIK is less than 4 fold
Output: label 1

Input: Find out if reported Binding Signal (fold over 6E7 parental antibody) for 6E7 antibody affinity modulation variant V86 (antibody, V domains shown) VH: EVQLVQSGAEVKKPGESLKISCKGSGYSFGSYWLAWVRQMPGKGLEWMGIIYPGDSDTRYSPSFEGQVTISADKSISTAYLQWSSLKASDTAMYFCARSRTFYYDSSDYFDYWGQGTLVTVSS VL: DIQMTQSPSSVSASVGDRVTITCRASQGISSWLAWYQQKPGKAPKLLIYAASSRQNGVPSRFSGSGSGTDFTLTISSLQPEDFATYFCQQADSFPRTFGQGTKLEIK is less than 4 fold
Output: label 0

Source: patent US20250019437A1
